SYSTEM NAME: Coagulation factor X (Homo sapiens, UniProt P00742)
Sequence (P00742 41-179 limits assumed): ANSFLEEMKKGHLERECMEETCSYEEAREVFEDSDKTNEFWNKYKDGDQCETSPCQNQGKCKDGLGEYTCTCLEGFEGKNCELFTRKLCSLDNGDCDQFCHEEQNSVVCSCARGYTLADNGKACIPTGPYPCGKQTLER
Sequence (P00742 235-488 limits assumed): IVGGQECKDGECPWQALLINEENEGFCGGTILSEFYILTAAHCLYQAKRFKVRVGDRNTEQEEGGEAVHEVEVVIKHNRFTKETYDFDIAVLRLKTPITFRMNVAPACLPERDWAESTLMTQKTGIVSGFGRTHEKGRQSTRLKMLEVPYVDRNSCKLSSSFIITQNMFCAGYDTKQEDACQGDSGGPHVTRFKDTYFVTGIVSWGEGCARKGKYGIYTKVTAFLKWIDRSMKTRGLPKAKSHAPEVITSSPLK
RECORDED ENDPOINT: Ki (nM)
Unit nM implied. Number only.

Incoming: I would be grateful if you could share the reported Ki for Cc1cc(N2CCC(N(C)C(=O)CCS(=O)(=O)c3ccc4cc(Cl)ccc4c3)CC2)ccn1 .
Outgoing: 15

---

TEST DETAILS: Oral bioavailability in cynomolgus monkey at 1 mg/kg
Type: ADME, organism-based, Macaca fascicularis
STUDY CONDITIONS: in vivo
RECORDED ENDPOINT: bioavailability (%)
Unit % implied. Number only.

Incoming: I would be grateful if you could share the reported bioavailability for Cc1cc(N2CCC(N(C)C(=O)CCS(=O)(=O)c3ccc4cc(Cl)ccc4c3)CC2)ccn1 .
Outgoing: 66.7
